TARGET OF ASSAY: Phosphatidylinositol 4,5-bisphosphate 3-kinase catalytic subunit alpha isoform (Homo sapiens, UniProt P42336)
Sequence (P42336 whole entry, canonical isoform): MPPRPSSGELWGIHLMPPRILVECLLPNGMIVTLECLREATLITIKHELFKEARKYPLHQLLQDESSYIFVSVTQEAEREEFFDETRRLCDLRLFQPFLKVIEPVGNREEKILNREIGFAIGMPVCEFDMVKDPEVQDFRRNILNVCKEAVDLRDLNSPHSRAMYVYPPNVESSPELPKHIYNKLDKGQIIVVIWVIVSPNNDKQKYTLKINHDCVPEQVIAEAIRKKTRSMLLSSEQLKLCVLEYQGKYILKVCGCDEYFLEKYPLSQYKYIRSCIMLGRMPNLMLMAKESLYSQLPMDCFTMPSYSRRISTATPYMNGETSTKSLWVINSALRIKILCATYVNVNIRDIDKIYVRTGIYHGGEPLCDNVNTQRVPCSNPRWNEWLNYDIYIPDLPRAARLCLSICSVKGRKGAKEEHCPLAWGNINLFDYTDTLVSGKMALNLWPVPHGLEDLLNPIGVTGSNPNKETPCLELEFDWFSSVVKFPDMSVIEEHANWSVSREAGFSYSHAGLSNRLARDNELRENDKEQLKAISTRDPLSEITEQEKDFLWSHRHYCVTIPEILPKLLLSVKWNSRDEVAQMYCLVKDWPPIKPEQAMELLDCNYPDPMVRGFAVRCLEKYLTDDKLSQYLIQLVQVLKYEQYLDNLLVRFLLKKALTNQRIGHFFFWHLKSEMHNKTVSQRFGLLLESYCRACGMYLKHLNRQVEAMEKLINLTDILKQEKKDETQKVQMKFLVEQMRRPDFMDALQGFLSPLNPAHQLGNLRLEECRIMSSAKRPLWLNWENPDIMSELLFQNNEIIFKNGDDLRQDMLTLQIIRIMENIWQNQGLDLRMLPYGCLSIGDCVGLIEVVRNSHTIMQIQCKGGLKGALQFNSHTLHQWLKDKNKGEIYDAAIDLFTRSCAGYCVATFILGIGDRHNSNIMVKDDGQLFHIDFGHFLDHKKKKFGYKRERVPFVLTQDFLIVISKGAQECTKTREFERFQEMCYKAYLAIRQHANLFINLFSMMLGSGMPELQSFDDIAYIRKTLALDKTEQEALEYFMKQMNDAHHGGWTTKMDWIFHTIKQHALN
ASSAY DETAILS: Inhibition of PI3Kalpha by luminescent kinase glo assay
pIC50: −log10 of the molar value.
Listed below: pIC50 values for each entry.

Examples with answers:
compound=Cc1cc(F)ccc1NCc1cc(C(=O)O)cc(-c2ccccc2O)n1 observed_value="< 4.00"
compound=Cc1cc(F)ccc1NCc1cc(C=O)cc(N2CCOCC2)n1 observed_value=4.00
compound=Cc1cc(F)ccc1NCc1cc(C(=O)O)cc(-c2ccncc2)n1 observed_value=4.54
compound=Cc1cc(F)ccc1NCc1cc(C(=O)O)cc(Cl)n1 observed_value="< 4.00"

Can you look up the measured pIC50 of `Cc1cc(F)ccc1OCc1cc(C(=O)NO)cc(N2CCOCC2)n1` for me?
≤ 5.00

Can you look up the measured pIC50 of `Cc1cc(F)ccc1NCc1cc(C(=O)O)cc(-c2cccnc2)n1` for me?
< 4.00

Can you look up the measured pIC50 of Cc1cc(F)ccc1NCc1cc(C(=O)O)cc(N2CCC(O)C2)n1 (stereo unspecified) for me?
< 4.00

* * *

TARGET OF ASSAY: Phosphatidylinositol 4,5-bisphosphate 3-kinase catalytic subunit alpha isoform (Homo sapiens, UniProt P42336)
ASSAY DETAILS: Inhibition of PI3Kalpha by luminescent kinase glo assay
ASSAY ENDPOINT: pIC50
Interpret pIC50 as the negative base-10 log of the concentration measured in mol/L.

structure_as_smiles=Cc1cc(F)ccc1NCc1cc(C(=O)O)cc(-c2ccc(O)cc2)n1 assay_endpoint=pIC50 observed_value=4.00
structure_as_smiles=Cc1cc(F)ccc1OCc1cc(C(=O)O)cc(N2CCOCC2)n1 assay_endpoint=pIC50 observed_value=5.15

For the next question, use this molecule.
Can you look up the measured pIC50 of `O=C(O)c1ccnc(N2CCOCC2)c1` for me?
4.44

* * *

TARGET OF ASSAY: Phosphatidylinositol 4,5-bisphosphate 3-kinase catalytic subunit gamma isoform (Homo sapiens)
Sequence (P48736 whole entry, canonical isoform): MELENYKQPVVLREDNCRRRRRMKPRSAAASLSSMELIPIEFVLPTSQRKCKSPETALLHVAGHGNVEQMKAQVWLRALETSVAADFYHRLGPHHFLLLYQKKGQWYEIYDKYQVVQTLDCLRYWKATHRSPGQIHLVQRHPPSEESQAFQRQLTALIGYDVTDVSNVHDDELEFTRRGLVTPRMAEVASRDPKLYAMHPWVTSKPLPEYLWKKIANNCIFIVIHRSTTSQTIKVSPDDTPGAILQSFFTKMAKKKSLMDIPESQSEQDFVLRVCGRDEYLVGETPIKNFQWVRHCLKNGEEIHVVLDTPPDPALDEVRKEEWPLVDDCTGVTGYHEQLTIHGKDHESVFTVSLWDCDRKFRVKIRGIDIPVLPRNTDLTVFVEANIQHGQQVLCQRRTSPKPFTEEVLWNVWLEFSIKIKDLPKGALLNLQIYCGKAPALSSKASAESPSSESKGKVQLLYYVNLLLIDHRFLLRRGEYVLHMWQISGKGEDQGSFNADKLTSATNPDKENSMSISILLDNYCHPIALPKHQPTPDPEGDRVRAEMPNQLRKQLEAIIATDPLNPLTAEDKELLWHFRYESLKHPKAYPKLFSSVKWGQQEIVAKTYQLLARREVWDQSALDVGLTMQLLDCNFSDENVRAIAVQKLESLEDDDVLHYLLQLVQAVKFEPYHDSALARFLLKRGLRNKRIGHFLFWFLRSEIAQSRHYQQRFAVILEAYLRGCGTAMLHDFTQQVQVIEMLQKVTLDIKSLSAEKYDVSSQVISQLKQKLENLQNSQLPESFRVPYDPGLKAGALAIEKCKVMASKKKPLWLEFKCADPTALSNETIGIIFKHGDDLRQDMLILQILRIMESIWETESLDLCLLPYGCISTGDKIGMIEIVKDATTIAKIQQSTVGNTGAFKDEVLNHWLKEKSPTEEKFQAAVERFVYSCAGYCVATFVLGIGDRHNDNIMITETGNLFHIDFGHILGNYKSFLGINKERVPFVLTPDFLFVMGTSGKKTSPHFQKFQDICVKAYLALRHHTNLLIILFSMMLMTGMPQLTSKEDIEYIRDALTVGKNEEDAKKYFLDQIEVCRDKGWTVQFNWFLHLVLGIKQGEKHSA
ASSAY DETAILS: Inhibition of PI3Kgamma by luminescent kinase glo assay
ASSAY ENDPOINT: IC50

compound=Cc1cc(F)ccc1NCc1cc(C(=O)O)cc(N(C)CCO)n1 assay_endpoint=IC50 observed_value="> 100 µM"

Can you look up the measured IC50 of `CCOC(=O)c1cc(COc2ccc(F)cc2C)nc(N2CCOCC2)c1` for me?
< 10 µM

Can you look up the measured IC50 of `Cc1cc(F)ccc1NCc1cc(C(=O)O)cc(N2CCCC2)n1` for me?
> 100 µM

Can you look up the measured IC50 of `Cc1cc(F)ccc1NCc1cc(C(=O)NCCO)cc(NCCO)n1` for me?
> 100 µM

Can you look up the measured IC50 of `Cc1cc(F)ccc1NCc1cc(C(=O)O)cc(-c2ccncc2)n1` for me?
42 µM

Can you look up the measured IC50 of `Cc1cc(F)ccc1NCc1cc(C(=O)O)cc(-c2ccc(O)cc2)n1` for me?
100 µM

Can you look up the measured IC50 of `Cc1cc(F)ccc1NCc1cc(C(=O)O)cc(N2CCNCC2)n1` for me?
> 100 µM

* * *

TARGET OF ASSAY: Phosphatidylinositol 4,5-bisphosphate 3-kinase catalytic subunit alpha isoform (Homo sapiens, UniProt P42336)
ASSAY DETAILS: Inhibition of PI3Kalpha by luminescent kinase glo assay
pIC50: −log10 of the molar value.
ASSAY ENDPOINT: pIC50

Examples with answers:
structure_as_smiles=Cc1cc(F)ccc1OCc1cc(C(=O)NCCO)cc(N2CCOCC2)n1 observed_value="≤ 4.30"
structure_as_smiles=Cc1cc(F)ccc1NCc1cc(C(=O)O)cc(N2CCNCC2)n1 observed_value="< 4.00"
structure_as_smiles=Cc1cc(F)ccc1NCc1cc(C(=O)O)cc(NCCO)n1 observed_value=4.00

For the next question, use this compound.
Can you look up the measured pIC50 of `Cc1cc(F)ccc1NCc1cc(C(=O)O)cc(N(C)CCO)n1` for me?
< 4.00
